The reported numbers originate from ChEMBL document CHEMBL1123136.

- Subject of test: Renin (Homo sapiens)
- Sequence (P00797 whole entry): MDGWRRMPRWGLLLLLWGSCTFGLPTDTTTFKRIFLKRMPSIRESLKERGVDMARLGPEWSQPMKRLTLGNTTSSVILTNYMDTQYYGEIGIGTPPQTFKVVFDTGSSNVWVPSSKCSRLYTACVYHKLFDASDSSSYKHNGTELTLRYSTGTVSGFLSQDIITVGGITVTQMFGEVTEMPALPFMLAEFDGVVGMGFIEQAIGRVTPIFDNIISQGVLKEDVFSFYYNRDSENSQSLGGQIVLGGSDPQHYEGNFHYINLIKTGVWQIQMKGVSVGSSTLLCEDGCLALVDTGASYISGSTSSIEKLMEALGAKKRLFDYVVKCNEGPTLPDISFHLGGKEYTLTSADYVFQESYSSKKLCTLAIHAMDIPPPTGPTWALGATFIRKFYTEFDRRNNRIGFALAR
- Protocol notes: Plasma renin inhibitory activity was evaluated in lyophilized human plasma with 0.1%EDTA
pIC50: −log10 of the molar value. Non-standard residues stand in square brackets, D forms with d. Residues, ends and D or L forms follow the SMILES beside them. *: point of attachment. Sta = CC(C)C[C@H](N)[C@@H](O)CC(=O)O; NHCH2(2-pyridyl) = c1ccc(CN*)nc1; Boc = CC(C)(C)OC(=O)*
Endpoint name: pIC50

>>> endpoint_result("CC[C@H](C)[C@H](NC(=O)C[C@H](O)[C@H](CC(C)C)NC(=O)[C@H](Cc1c[nH]cn1)NC(=O)[C@H](Cc1ccccc1)NC(=O)OC(C)(C)C)C(=O)NCc1ccccn1 (Boc-FH[Sta]I-{NHCH2(2-pyridyl)})")
8.77

I. CC[C@H](C)[C@H](NC(=O)C(F)(F)C(=O)[C@H](CC(C)C)NC(=O)[C@H](Cc1c[nH]cn1)NC(=O)[C@H](Cc1ccccc1)NC(=O)OC(C)(C)C)C(=O)NCc1ccccn1
II. CC[C@H](C)[C@H](NC(=O)C(F)(F)[C@@H](O)[C@H](CC(C)C)NC(=O)[C@H](Cc1c[nH]cn1)NC(=O)[C@H](Cc1ccccc1)NC(=O)OC(C)(C)C)C(=O)NCc1ccccn1
III. CC[C@H](C)[C@H](NC(=O)C(F)(F)[C@H](O)[C@H](CC(C)C)NC(=O)[C@H](Cc1c[nH]cn1)NC(=O)[C@H](Cc1ccccc1)NC(=O)OC(C)(C)C)C(=O)NCc1ccccn1
IV. CC[C@H](C)[C@H](NC(=O)CC(=O)[C@H](CC(C)C)NC(=O)[C@H](Cc1c[nH]cn1)NC(=O)[C@H](Cc1ccccc1)NC(=O)OC(C)(C)C)C(=O)NCc1ccccn1
# input Parameters: sort_field (pIC50), sort_dir (desc). Put the labels in the requested order and list them out.
# output I, III, IV, II

====

- Subject of test: Angiotensin-converting enzyme (Oryctolagus cuniculus, UniProt P12822)
- Sequence (P12822 whole entry): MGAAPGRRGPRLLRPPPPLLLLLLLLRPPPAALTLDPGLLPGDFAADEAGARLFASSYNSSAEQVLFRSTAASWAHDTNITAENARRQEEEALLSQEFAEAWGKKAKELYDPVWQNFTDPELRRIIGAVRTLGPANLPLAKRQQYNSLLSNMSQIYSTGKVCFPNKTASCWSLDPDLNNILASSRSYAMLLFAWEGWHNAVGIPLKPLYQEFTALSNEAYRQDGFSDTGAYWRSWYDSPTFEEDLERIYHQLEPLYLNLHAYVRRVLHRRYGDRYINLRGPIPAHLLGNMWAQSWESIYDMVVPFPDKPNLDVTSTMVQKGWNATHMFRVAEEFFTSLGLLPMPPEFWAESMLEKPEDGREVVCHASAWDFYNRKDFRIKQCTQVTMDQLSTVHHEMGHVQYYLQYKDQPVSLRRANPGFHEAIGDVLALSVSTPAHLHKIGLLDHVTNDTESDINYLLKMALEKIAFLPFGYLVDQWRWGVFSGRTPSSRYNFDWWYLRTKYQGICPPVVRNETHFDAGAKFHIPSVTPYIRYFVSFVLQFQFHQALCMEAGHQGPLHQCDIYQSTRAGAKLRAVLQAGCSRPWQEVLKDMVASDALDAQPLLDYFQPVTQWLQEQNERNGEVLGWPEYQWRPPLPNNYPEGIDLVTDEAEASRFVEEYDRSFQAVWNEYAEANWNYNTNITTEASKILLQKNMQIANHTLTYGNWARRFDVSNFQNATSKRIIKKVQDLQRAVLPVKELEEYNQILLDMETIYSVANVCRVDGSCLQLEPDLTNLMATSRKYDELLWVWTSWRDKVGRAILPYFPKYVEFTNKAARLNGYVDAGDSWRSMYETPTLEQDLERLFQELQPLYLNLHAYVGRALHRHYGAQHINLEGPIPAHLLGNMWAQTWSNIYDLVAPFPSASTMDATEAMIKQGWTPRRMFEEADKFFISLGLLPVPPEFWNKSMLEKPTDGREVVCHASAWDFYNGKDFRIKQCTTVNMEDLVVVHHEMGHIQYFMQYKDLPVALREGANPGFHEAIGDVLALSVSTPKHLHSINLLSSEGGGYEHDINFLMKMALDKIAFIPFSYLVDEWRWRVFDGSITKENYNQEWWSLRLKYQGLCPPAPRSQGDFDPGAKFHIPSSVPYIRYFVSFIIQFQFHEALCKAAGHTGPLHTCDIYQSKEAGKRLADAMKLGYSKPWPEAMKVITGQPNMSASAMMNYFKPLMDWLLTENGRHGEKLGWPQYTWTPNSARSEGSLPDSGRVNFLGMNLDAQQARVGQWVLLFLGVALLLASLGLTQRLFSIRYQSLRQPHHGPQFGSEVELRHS
- Protocol notes: Inhibitory activity was evaluated against Angiotensin I converting enzyme activity in rabbit
Endpoint name: pIC50
A value of pIC50 is the negative decimal logarithm of a concentration given in moles per litre.

# input Quick one: pIC50 of H-PHPFHFFVYK-OH [RIP] ?
# output 4.92
